- ASSAY TARGET: UniProt P08172
- COND: boosting of the acetylcholine effect at EC20 acetylcholine concentration; M2-GIRK1/4 reporter cells
PROPERTY MEASURED: Efficiency (%)

Here's what some known entries look like.
>>> val("CC(NC(=O)c1cn(-c2ccc(F)cc2F)c2nc(N3C[C@@H](O)CC3=O)ccc2c1=O)C(F)(F)C(F)(F)F (single isomer, unassigned)")
96.5
>>> val("CC(C)C(NC(=O)c1cn(-c2c(F)cc(F)cc2F)c2nc(N3C[C@@H](O)[C@H](O)C3)ccc2c1=O)C(F)(F)F (single isomer, unassigned)")
94.5
>>> val("CCC(NC(=O)c1cn(-c2c(F)cc(F)cc2F)c2nc(N3C[C@@H](O)CC3=O)ccc2c1=O)C(F)(F)C(F)(F)F (single isomer, unassigned)")
100.0
>>> val("CCC(COC(F)(F)F)NC(=O)c1cn(-c2c(F)cc(F)cc2F)c2nc(N3C[C@@H](O)[C@H](O)C3)ccc2c1=O (single isomer, unassigned)")
100.0
>>> val("O=C(NC(CC(F)(F)F)C1CC1)c1cn(-c2c(F)cc(F)cc2F)c2nc(N3C[C@@H](O)CC3=O)ccc2c1=O (single isomer, unassigned)")
99.0
>>> val("O=C(NC(CC(F)(F)F)C(F)(F)F)c1cn(-c2c(F)cc(F)cc2F)c2nc(N3C[C@@H](O)CC3=O)ccc2c1=O (single isomer, unassigned)")
100.0
>>> val("CO[C@@H]1CN(c2ccc3c(=O)c(C(=O)N[C@@H](C4CC4)C(F)(F)F)cn(-c4c(F)cc(F)cc4F)c3n2)C[C@H]1O (single isomer, unassigned)")
98.0
>>> val("CC[C@H](NC(=O)c1cn(-c2c(F)cc(F)cc2F)c2nc(N3CC(O)C4(CC4)C3)ccc2c1=O)C(F)(F)F (single isomer, unassigned)")
100.0
>>> val("CC(NC(=O)c1cn(-c2c(F)cc(F)cc2F)c2nc(N3C[C@@H](O)CC3=O)ccc2c1=O)(C1CC1)C(F)(F)F (single isomer, unassigned)")
94.0

1 = O=C(NC(CC(F)(F)F)C(F)(F)F)c1cn(-c2c(F)cc(F)cc2F)c2nc(N3CCNC3=O)ccc2c1=O (racemic) [Example 587]
2 = CC[C@H](NC(=O)c1cn(-c2c(F)cc(F)cc2Cl)c2nc(N3CCC(C)C3=O)ccc2c1=O)C(F)(F)F (single isomer, unassigned) [Example 423]
Prompt line: Of 1 and 2 , which one carries the higher reported Efficiency? Provide the label of your selected option as the answer.
Response line: 1
(1: 93.5%, 2: 53.5%)

###

- ASSAY TARGET: human M2 receptor (Homo sapiens, UniProt P08172)
- Assay type: cell-based
- COND: shift of acetylcholine dose-response curve (Allosteric EC50 shift); α >1 = positive cooperativity
PROPERTY MEASURED: Cooperativity (alpha factor)

>>> val("O=C(Nc1c(Cl)cccc1Cl)c1cn(-c2ccc(F)cc2F)c2nc(N3C[C@@H](O)[C@H](O)C3)ccc2c1=O")
23
>>> val("O=C(N[C@@H](C1CC1)C(F)(F)F)c1cn(-c2c(F)cc(F)cc2Cl)c2nc(N3C[C@@H](O)[C@H](O)C3)ccc2c1=O (single isomer, unassigned)")
37
>>> val("COC(=O)N1CCN(c2ccc3c(=O)c(C(=O)Nc4c(Cl)cccc4Cl)cn(-c4c(F)cc(F)cc4F)c3n2)CC1")
29
>>> val("CC(C)C(NC(=O)c1cn(-c2c(F)cc(F)cc2F)c2nc(N3C[C@@H](O)[C@H](O)C3)ccc2c1=O)C(C)C")
44

I = CC[C@H](NC(=O)c1cn(-c2c(F)cc(F)cc2Cl)c2nc(N3CCC(C)C3=O)ccc2c1=O)C(F)(F)F (single isomer, unassigned) [Example 425]
II = CCC1CCN(c2ccc3c(=O)c(C(=O)N[C@@H](C4CC4)C(F)(F)F)cn(-c4c(F)cc(F)cc4F)c3n2)C(=O)N1 (single isomer, unassigned) [Example 448]
Prompt line: Identify the entry with the larger Cooperativity (alpha factor). Options: I and II Give the label of your selection.
Response line: II
(II: 22, I: 9)

###

- ASSAY TARGET: human M2 receptor (Homo sapiens)
- COND: read-out: Efficiency, boosting of the acetylcholine effect at EC20 acetylcholine concentration; M2-GIRK1/4 reporter cells
PROPERTY MEASURED: Emax (%)

>>> val("CC[C@H](NC(=O)c1cn(-c2c(F)cc(F)cc2F)c2nc(N3CC(CNC(C)=O)CC3=O)ccc2c1=O)C(F)(F)F (stereo partly drawn)")
99.5
>>> val("CC(C)[C@H](C)NC(=O)c1cn(-c2c(F)cc(F)cc2F)c2nc(N3C[C@@H](O)[C@H](O)C3)ccc2c1=O")
90
>>> val("CC[C@H](NC(=O)c1cn(-c2c(F)cc(F)cc2Cl)c2nc(N3C(=O)CC[C@@H]3CO)ccc2c1=O)C(F)(F)F")
90
>>> val("CC(C)C[C@@H](NC(=O)c1cn(-c2c(F)cc(F)cc2F)c2nc(N3C[C@@H](O)CC3=O)ccc2c1=O)C(F)(F)F")
100
>>> val("CC1CN(c2ccc3c(=O)c(C(=O)N[C@@H](C4CC4)C(F)(F)F)cn(-c4c(F)cc(F)cc4F)c3n2)C(=O)O1 (mixture of isomers)")
94
>>> val("NC(=O)N1CCN(c2ccc3c(=O)c(C(=O)Nc4c(Cl)cccc4Cl)cn(-c4c(F)cc(F)cc4F)c3n2)CC1")
98.1

###

- ASSAY TARGET: human M2 receptor (Homo sapiens, UniProt P08172)
- Type: cell-based
- COND: shift of acetylcholine dose-response curve (Allosteric EC50 shift); α >1 = positive cooperativity
PROPERTY MEASURED: Cooperativity (alpha factor)

>>> val("CCC(COC(F)(F)F)NC(=O)c1cn(-c2c(F)cc(F)cc2F)c2nc(N3C[C@@H](O)CC3=O)ccc2c1=O (mixture of isomers) [Example 410]")
36
>>> val("CC(NC(=O)c1cn(-c2c(F)cc(F)cc2F)c2nc(N3C[C@@H](O)CC3=O)ccc2c1=O)C(F)(F)C(F)(F)F (single isomer, unassigned) [Example 530]")
44
>>> val("O=C(N[C@@H](C1CC1)C(F)(F)F)c1cn(-c2c(F)cc(F)cc2F)c2nc(N3C[C@@H](O)CC3=O)ccc2c1=O [Example 404]")
35
>>> val("O=C(NC(CC(F)(F)F)C1CC1)c1cn(-c2c(F)cc(F)cc2F)c2nc(N3C[C@@H](O)CC3=O)ccc2c1=O (single isomer, unassigned) [Example 514]")
30
>>> val("O=C(NC(CC(F)(F)F)C1CC1)c1cn(-c2c(F)cc(F)cc2F)c2nc(N3C[C@@H](O)[C@H](O)C3)ccc2c1=O (single isomer, unassigned) [Example 439]")
35
>>> val("C[C@@H]1CN(c2ccc3c(=O)c(C(=O)NC(C)(C)CC(F)(F)F)cn(-c4c(F)cc(F)cc4F)c3n2)C(=O)N1 [Example 457]")
36

###

- ASSAY TARGET: human M2 receptor (Homo sapiens, UniProt P08172)
- COND: boosting of the acetylcholine effect at EC20 acetylcholine concentration; M2-GIRK1/4 reporter cells
PROPERTY MEASURED: Efficiency (%)

>>> val("CCC1CCN(c2ccc3c(=O)c(C(=O)N[C@@H](C4CC4)C(F)(F)F)cn(-c4c(F)cc(F)cc4F)c3n2)C(=O)N1 (single isomer, unassigned)")
97.0
>>> val("O=C(N[C@@H](C1CC1)C(F)(F)F)c1cn(-c2c(F)cc(F)cc2Cl)c2nc(N3C[C@@H](O)[C@H](O)C3)ccc2c1=O (single isomer, unassigned)")
100.0
>>> val("CC(C)C(NC(=O)c1cn(-c2c(F)cc(F)cc2F)c2nc(N3C[C@@H](O)CC3=O)ccc2c1=O)C(F)(F)F (single isomer, unassigned)")
100.0
>>> val("O=C(NC(C1CCC1)C(F)(F)F)c1cn(-c2c(F)cc(F)cc2F)c2nc(N3C[C@@H](O)CC3=O)ccc2c1=O (single isomer, unassigned)")
98.0
>>> val("CC(C)C(NC(=O)c1cn(-c2c(F)cc(F)cc2F)c2nc(N3CCNC3=O)ccc2c1=O)C(F)(F)F (racemic) [Example 538]")
100.0
>>> val("CC(NC(=O)c1cn(-c2c(F)cc(F)cc2F)c2nc(N3C[C@@H](O)[C@H](O)C3)ccc2c1=O)(C1CC1)C(F)(F)F (stereo partly drawn)")
100.0

###

- ASSAY TARGET: human M2 receptor (Homo sapiens)
- Sequence (P08172 1-466): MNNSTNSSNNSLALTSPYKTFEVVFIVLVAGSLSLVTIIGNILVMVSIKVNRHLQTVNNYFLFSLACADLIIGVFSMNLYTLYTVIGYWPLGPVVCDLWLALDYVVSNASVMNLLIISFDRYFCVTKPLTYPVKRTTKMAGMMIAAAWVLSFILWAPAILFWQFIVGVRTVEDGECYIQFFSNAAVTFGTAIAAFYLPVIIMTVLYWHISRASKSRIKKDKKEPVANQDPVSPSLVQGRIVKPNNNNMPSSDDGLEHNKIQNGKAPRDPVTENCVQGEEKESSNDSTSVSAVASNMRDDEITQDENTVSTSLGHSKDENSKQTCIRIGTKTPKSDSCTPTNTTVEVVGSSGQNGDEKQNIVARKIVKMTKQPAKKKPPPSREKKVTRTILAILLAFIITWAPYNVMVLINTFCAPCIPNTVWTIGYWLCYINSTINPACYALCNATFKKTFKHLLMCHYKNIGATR
- COND: Receptor activity EC50, allosteric potency at EC20 acetylcholine; M2-GIRK1/4 reporter cells; in some cases mean of two or more determinations
PROPERTY MEASURED: EC50 (nM)

>>> val("O=C(N[C@@H](C1CC1)C(F)(F)F)c1cn(-c2c(F)cc(F)cc2F)c2nc(N3CCC(O)C(O)C3)ccc2c1=O (mixture of isomers) [Example 615]")
53

P = CC(NC(=O)c1cn(-c2c(F)cc(F)cc2F)c2nc(N3C[C@@H](O)[C@H](O)C3)ccc2c1=O)(C(F)(F)F)C(F)(F)F [Example 591]
Q = O=C(NC(c1ccccc1Cl)C(F)(F)F)c1cn(-c2c(F)cc(F)cc2F)c2nc(N3CCNC3=O)ccc2c1=O (single isomer, unassigned) [Example 564]
Prompt line: Please state the entry with greater EC50 among P and Q . Answer format: the label of the selected item.
Response line: Q
